// reported Cell number to mock (%) for each item listed
System: vero cells
assaySetup: single concentration 10 μM
Give the number; % is assumed, so skip it.

Consider the worked cases shown below.
{"compound": "CO[C@H]1[C@H](O)[C@@H](O)[C@H](n2c3c(Cl)cccc3c3c4c(c5c6cccc(Cl)c6[nH]c5c32)C(=O)NC4=O)O[C@@H]1CO", "Cell number to mock (%)": 72.32}
{"compound": "C[C@]12C[C@@]34C=CC(=O)[C@@](C)(CCC(=O)Nc5c(O)ccc(C(=O)O)c5O)[C@@H]3[C@H](C[C@@H]1C4)O2", "Cell number to mock (%)": 109.23}
{"compound": "COC1=CC(=O)[C@@]2(C)c3c(O)c(C)c(O)c(C(C)=O)c3O[C@@]2(OC)C1", "Cell number to mock (%)": 109.23}

Turning now to a further compound:
Quick check: Cell number to mock (%) on vero cells, item CC(=O)c1c(O)c(C)c(O)c2c1OC1=CC(=O)C(C(C)=O)C(=O)[C@@]12C (single isomer, unassigned; (+)) [(+)-usnic acid] ?
94.69
